test system: Trypanosoma brucei brucei; test: Antiparasitic activity against Trypanosoma brucei brucei BF427 assessed as growth inhibition by Alamar Blue assay; assay type: functional, organism-based
Hi there, I'd appreciate the recorded pEC50 for every entry that follows.
Give only the number. pEC50 is defined as minus log10 of concentration in molar units.

What value of pEC50 has been reported for the following compound? `O=C(Nc1ccc(F)c(-c2nc3ncccc3o2)c1)c1cnccn1` 6.05

Queued: `COc1cccc(-c2cnc3[nH]c(-c4cc(NC(=O)N5CCCC5)ccc4F)nc3c2)c1` 8.00

Try this compound too: `O=C(Nc1ccc(Cl)c(-c2nc3ncccc3o2)c1)N1CCCC1` 7.05

Also `CC(C)NC(=O)Nc1ccc(Cl)c(-c2nc3ncccc3o2)c1` , if possible. 6.00

Try this compound next: `O=C(Nc1ccc(Cl)c(-c2nc3ncccc3o2)c1)c1ccccc1` 5.15

// next record `O=C(Nc1ccc(F)c(-c2nc3cc(-c4ccccc4)cnc3[nH]2)c1)N1CCCC1` 8.70

What about this compound? `O=C(Nc1ccc(F)c(-c2nc3ncccc3o2)c1)c1cnco1` 5.72

How about this compound: `O=C(Nc1ccc(F)c(-c2nc3c(Cl)ccnc3[nH]2)c1)c1ccco1` 6.92

Same thing, different compound: `O=C(c1ccco1)N(C(=O)c1ccco1)c1ccc(F)c(-c2nc3ncccc3o2)c1` 6.92

And `COc1ccc(-c2cnc3[nH]c(-c4cc(NC(=O)N5CCCC5)ccc4F)nc3c2)cn1` ? 8.30

Thanks! And `O=C(Nc1ccc(F)c(-c2nc3cc(Cl)cnc3[nH]2)c1)c1ccco1` ? 7.15

What do you get for `CNC(=O)Nc1ccc(F)c(-c2nc3ncccc3o2)c1` ? 5.42

Consider next the compound `O=C(Nc1ccc(F)c(-c2nc3cc(-c4ccccc4Cl)cnc3[nH]2)c1)N1CCCC1` in the same way. 8.30

----------
test system: Trypanosoma brucei brucei; assay: Antiparasitic activity against Trypanosoma brucei brucei BF427 assessed as growth inhibition by Alamar Blue assay; format: functional, organism-based
Give measured EC50 for each item. Keep answers brief.
Give the number; nM is assumed, so skip it.

Return reported EC50; argument: `Cc1ccoc1C(=O)Nc1ccc(F)c(-c2nc3ncccc3o2)c1` 100

# repeat for `Nc1cccc(-c2cnc3[nH]c(-c4cc(NC(=O)N5CCCC5)ccc4F)nc3c2)c1` 10

Same lookup for `O=C(Nc1ccc(F)c(-c2nc3cc(-c4ccnc(Cl)c4)cnc3[nH]2)c1)N1CCCC1` , please. 4

Let us now turn to `N#Cc1cnc2nc(-c3cc(NC(=O)c4ccco4)ccc3F)oc2c1` 380

----------
system: Trypanosoma brucei brucei; experiment: Antiparasitic activity against Trypanosoma brucei brucei BF427 assessed as growth inhibition by Alamar Blue assay; type: functional, organism-based
METRIC NAME: pEC50
Please note pEC50 is a logarithmic value: minus log10 of concentration in mol/L. Answer with that number alone.

What value of pEC50 has been reported for the following molecule? `O=C(Nc1ccc(F)c(-c2nc3cc(-c4ccc(Cl)nc4)cnc3[nH]2)c1)N1CCCC1` 8.00

What do you get for `Cc1cc(-c2cnc3[nH]c(-c4cc(NC(=O)N5CCCC5)ccc4F)nc3c2)ccc1F` ? 7.70

Also check `O=C(Nc1ccc(F)c(-c2nc3cccnc3[nH]2)c1)c1ccco1` 6.70

Please give the result for `CC(=O)N(C(=O)c1ccco1)c1ccc(F)c(-c2nc3ncccc3o2)c1` too. 6.30

----------
For each record, write down the corresponding pEC50.
tested on: Trypanosoma brucei brucei; assay: Antiparasitic activity against Trypanosoma brucei brucei BF427 assessed as growth inhibition by Alamar Blue assay; format: functional, organism-based
pEC50 is defined as minus the log10 of a concentration measured in mol/L.

Enter reported pEC50 observed with Trypanosoma brucei brucei for `O=C(Nc1ccc(F)c(-c2nc3ncc(-c4ccc(-c5ccccc5)cc4)cc3o2)c1)c1ccco1` 6.38

Likewise for `O=C(Nc1ccc(F)c(-c2nc3ncc(-c4cccc(Cl)c4)cc3o2)c1)c1ccco1` ? 7.30

How about this molecule: `Cc1ccc(C(=O)Nc2ccc(F)c(-c3nc4ncccc4o3)c2)o1` 6.70

Try the molecule `CC(=O)c1cccc(-c2cnc3[nH]c(-c4cc(NC(=O)N5CCCC5)ccc4F)nc3c2)c1` 8.52

Try this molecule next: `COc1ccccc1-c1cnc2[nH]c(-c3cc(NC(=O)N4CCCC4)ccc3F)nc2c1` 8.30

Quick one: `Cc1cccc(-c2cnc3[nH]c(-c4cc(NC(=O)N5CCCC5)ccc4F)nc3c2)c1` 8.70

Would you mind doing `O=C(Nc1ccc(F)c(-c2nc3cc(-c4cccc(OC(F)(F)F)c4)cnc3[nH]2)c1)N1CCCC1` as well? 7.52

Now consider `O=C(Nc1ccc(Cl)c(-c2nc3ncccc3o2)c1)c1ccco1` and answer again. 6.66

Moving on to the next molecule: `O=C(Nc1ccc(Cl)c(-c2nc3ncccc3o2)c1)N1CCCCC1` 5.72

Now consider `O=C(Nc1ccc(F)c(-c2nc3ncc(Br)cc3o2)c1)c1ccco1` . 6.64

Same for `Cc1ccc(NC(=O)c2ccco2)cc1-c1nc2ncccc2o1` 6.37

Now this one: `O=C(Nc1ccc(F)c(-c2nc3ncccc3o2)c1)c1ccoc1` 6.82

Also need `O=C(Nc1ccc(F)c(-c2nc3cc(-c4cccc(Cl)c4)cnc3[nH]2)c1)N1CCCC1` , thanks. 8.70

Another molecule to check: `O=C(Nc1ccc(F)c(-c2nc3ncccc3o2)c1)c1ccco1` 6.92

Please give the result for `O=C(Nc1ccc(F)c(-c2nc3ccc(Cl)nc3[nH]2)c1)c1ccco1` too. 5.00

`O=C(Nc1ccc(F)c(-c2nc3ncc(-c4ccc(F)cc4)cc3o2)c1)c1ccco1` , same question. 7.30

One more molecule: N=C(N)c1ccc(OCCCCCOc2ccc(C(=N)N)cc2)cc1 [PENTAMIDINE] 8.76

----------
For each entry below, report its CC50 value.
assay: Cytotoxicity against human CRL8155 cells after 48 hrs by Alamar Blue assay; type: cell-based; conditions: crl8155, 48 h
Output spec: scalar in µM, unitless text.

Using the record for `O=C(Nc1ccc(F)c(-c2nc3cc(Cl)cnc3[nH]2)c1)c1ccco1` , report its CC50. 1.7

Please do the same for `O=C(Nc1ccc(F)c(-c2nc3cc(-c4ccc(Cl)nc4)cnc3[nH]2)c1)N1CCCC1` as well. 3.8

Moving on to `Nc1cccc(-c2cnc3[nH]c(-c4cc(NC(=O)N5CCCC5)ccc4F)nc3c2)c1` 5

# repeat for `O=C(Nc1ccc(F)c(-c2nc3cc(-c4cncc(N5CCCC5)c4)cnc3[nH]2)c1)N1CCCC1` 8

----------
tested on: HepG2; assay: Cytotoxicity against human HepG2 cells after 48 hrs by Alamar Blue assay; format: cell-based; conditions: hepg2, 48 h
METRIC NAME: CC50

GET /values?readout=CC50&system=HepG2&item= `Cc1cccc(-c2cnc3[nH]c(-c4cc(NC(=O)N5CCCC5)ccc4F)nc3c2)c1` 10 µM

What about this molecule? `O=C(Nc1ccc(F)c(-c2nc3ncc(-c4ccc(F)cc4)cc3o2)c1)c1ccco1` 32 µM

Item: `O=C(Nc1ccc(F)c(-c2nc3cc(Cl)cnc3[nH]2)c1)c1ccco1` > 50 µM

How about `O=C(Nc1ccc(F)c(-c2nc3cc(-c4cccc(Cl)c4)cnc3[nH]2)c1)N1CCCC1` ? > 50 µM

Now the same for `Cc1cncc(-c2cnc3[nH]c(-c4cc(NC(=O)N5CCCC5)ccc4F)nc3c2)c1` > 50 µM

Moving on to the next molecule: `O=C(Nc1ccc(F)c(-c2nc3cc(-c4cncc(Cl)c4)cnc3[nH]2)c1)N1CCCC1` > 50 µM

// query: `O=C(Nc1ccc(F)c(-c2nc3cc(-c4ccoc4)cnc3[nH]2)c1)N1CCCC1` > 50 µM

Again, but for `O=C(Nc1ccc(F)c(-c2nc3cc(-c4cccc(OC(F)(F)F)c4)cnc3[nH]2)c1)N1CCCC1` > 50 µM

Can you check `COc1ccc(-c2cnc3[nH]c(-c4cc(NC(=O)N5CCCC5)ccc4F)nc3c2)cn1` next? > 50 µM

----------
assay: Cytotoxicity against human CRL8155 cells after 48 hrs by Alamar Blue assay; assay type: cell-based; conditions: crl8155, 48 h
Exam item: assign T to entries whose CC50 is below 4 µM and F to entries at or above 4 µM. Note that a value of exactly 4 µM receives F.

Is 4 µM strictly greater than the compound's reported CC50? compound: `O=C(Nc1ccc(F)c(-c2nc3cc(Cl)cnc3[nH]2)c1)N1CCCC1` F

And what about the compound `COc1ccccc1-c1cnc2[nH]c(-c3cc(NC(=O)N4CCCC4)ccc3F)nc2c1` ? F

And what about the compound `O=C(Nc1ccc(Cl)c(-c2nc3ncccc3o2)c1)c1ccco1` ? F

Also, `COc1cccc(-c2cnc3[nH]c(-c4cc(NC(=O)N5CCCC5)ccc4F)nc3c2)c1` please. T

Follow-up item: `O=C(Nc1ccc(F)c(-c2nc3cc(-c4cccc(Cl)c4)cnc3[nH]2)c1)N1CCCC1` T

One more compound: `O=C(Nc1ccc(F)c(-c2nc3cc(-c4cccnc4)cnc3[nH]2)c1)N1CCCC1` F

Now consider `O=C(Nc1ccc(F)c(-c2nc3cc(-c4cncc(Cl)c4)cnc3[nH]2)c1)N1CCCC1` and answer again. F
